experiment: In vivo pharmacokinetics in ICR mice; parameters: species or system male ICR mice; conditions: male, mouse, plasma; IV, 10 mg/kg, ICR mice
Measure: AUC(0-t) (ng·h/mL)
Numeric answer only, unit ng·h/mL assumed.

Query :: Report measured AUC(0-t); entry is O=C(Nc1ccc(C(F)(F)F)cc1)Nc1ccc(S(=O)(=O)N2CCC[C@H]2C(=O)Nc2ccccc2)cc1
Result :: 14400

---

assay: In vivo pharmacokinetics in ICR mice; set-up: species or system male ICR mice; conditions: mouse, plasma; IV (10 mg/kg), male ICR mice; read-out: Vz
Measure: Vd
Put your answer as a value accompanied by its unit after it.

Query :: Report measured Vd; entry is O=C(Nc1ccc(C(F)(F)F)cc1)Nc1ccc(S(=O)(=O)N2CCC[C@H]2C(=O)Nc2ccccc2)cc1 [ZL0580]
Result :: 0.95 L/kg

---

assay: In vivo pharmacokinetics in ICR mice; set-up: species or system male ICR mice; settings: mouse, plasma; IV (10 mg/kg), male ICR mice
Measure: half-life (min)
Numeric answer only, unit min assumed.

Query :: Report measured half-life; entry is O=C(Nc1ccc(C(F)(F)F)cc1)Nc1ccc(S(=O)(=O)N2CCC[C@H]2C(=O)Nc2ccccc2)cc1
Result :: 54.6

---

assay: In vivo pharmacokinetics in ICR mice; set-up: species or system male ICR mice; conditions: mouse, plasma; PO (20 mg/kg), male ICR mice
Measure: AUC(0-t) (ng·h/mL)
Numeric answer only, unit ng·h/mL assumed.

Query :: Report measured AUC(0-t); entry is O=C(Nc1ccc(C(F)(F)F)cc1)Nc1ccc(S(=O)(=O)N2CCC[C@H]2C(=O)Nc2ccccc2)cc1 [ZL0580]
Result :: 5590

---

assay: In vivo pharmacokinetics in ICR mice; parameters: species or system male ICR mice; conditions: male, mouse, plasma; IV, 10 mg/kg, ICR mice; read-out: AUC0-∞
Measure: AUC(0-inf) (ng·h/mL)
Numeric answer only, unit ng·h/mL assumed.

Query :: Report measured AUC(0-inf); entry is O=C(Nc1ccc(C(F)(F)F)cc1)Nc1ccc(S(=O)(=O)N2CCC[C@H]2C(=O)Nc2ccccc2)cc1
Result :: 14400

---

assay: In vivo pharmacokinetics in ICR mice; design: species or system male ICR mice; conditions: mouse, plasma; PO (20 mg/kg), male ICR mice
Measure: Cmax (ng/mL)
Numeric answer only, unit ng/mL assumed.

Query :: Report measured Cmax; entry is O=C(Nc1ccc(C(F)(F)F)cc1)Nc1ccc(S(=O)(=O)N2CCC[C@H]2C(=O)Nc2ccccc2)cc1 [ZL0580]
Result :: 1470

---

test: In vivo pharmacokinetics in ICR mice; design: species or system male ICR mice; details: mouse, plasma; PO (20 mg/kg), male ICR mice
Measure: MRT inf (h)
Numeric answer only, unit h assumed.

Query :: Report measured MRT inf; entry is O=C(Nc1ccc(C(F)(F)F)cc1)Nc1ccc(S(=O)(=O)N2CCC[C@H]2C(=O)Nc2ccccc2)cc1 [ZL0580]
Result :: 3.18

---

test: In vivo pharmacokinetics in ICR mice; parameters: species or system male ICR mice; conditions: mouse, plasma; IV (10 mg/kg), male ICR mice
Measure: Cmax (ng/mL)
Numeric answer only, unit ng/mL assumed.

Query :: Report measured Cmax; entry is O=C(Nc1ccc(C(F)(F)F)cc1)Nc1ccc(S(=O)(=O)N2CCC[C@H]2C(=O)Nc2ccccc2)cc1 [ZL0580]
Result :: 19300

---

experiment: In vivo pharmacokinetics in ICR mice; parameters: species or system male ICR mice; conditions: mouse, plasma; PO (20 mg/kg), male ICR mice; read-out: AUC0-inf
Measure: AUC(0-inf)
Put your answer as a value accompanied by its unit after it.

Query :: Report measured AUC(0-inf); entry is O=C(Nc1ccc(C(F)(F)F)cc1)Nc1ccc(S(=O)(=O)N2CCC[C@H]2C(=O)Nc2ccccc2)cc1
Result :: 5800 ng·h/mL

---

experiment: In vivo pharmacokinetics in ICR mice; parameters: species or system male ICR mice; conditions: mouse, plasma; IV (10 mg/kg), male ICR mice
Measure: clearance (mL/min/kg)
Numeric answer only, unit mL/min/kg assumed.

Query :: Report measured clearance; entry is O=C(Nc1ccc(C(F)(F)F)cc1)Nc1ccc(S(=O)(=O)N2CCC[C@H]2C(=O)Nc2ccccc2)cc1
Result :: 12

---

assay: In vivo pharmacokinetics in ICR mice; parameters: species or system male ICR mice; conditions: mouse, plasma; IV (10 mg/kg), male ICR mice
Measure: MRT inf
Put your answer as a value accompanied by its unit after it.

Query :: Report measured MRT inf; entry is O=C(Nc1ccc(C(F)(F)F)cc1)Nc1ccc(S(=O)(=O)N2CCC[C@H]2C(=O)Nc2ccccc2)cc1
Result :: 43.8 min

---

assay: In vivo pharmacokinetics in ICR mice; design: species or system male ICR mice; conditions: mouse, plasma; PO (20 mg/kg), male ICR mice
Measure: half-life (h)
Numeric answer only, unit h assumed.

Query :: Report measured half-life; entry is O=C(Nc1ccc(C(F)(F)F)cc1)Nc1ccc(S(=O)(=O)N2CCC[C@H]2C(=O)Nc2ccccc2)cc1 [ZL0580]
Result :: 2.54
